Target: Cytochrome P450 1A2 (Homo sapiens, UniProt P05177)
Sequence (P05177 whole entry): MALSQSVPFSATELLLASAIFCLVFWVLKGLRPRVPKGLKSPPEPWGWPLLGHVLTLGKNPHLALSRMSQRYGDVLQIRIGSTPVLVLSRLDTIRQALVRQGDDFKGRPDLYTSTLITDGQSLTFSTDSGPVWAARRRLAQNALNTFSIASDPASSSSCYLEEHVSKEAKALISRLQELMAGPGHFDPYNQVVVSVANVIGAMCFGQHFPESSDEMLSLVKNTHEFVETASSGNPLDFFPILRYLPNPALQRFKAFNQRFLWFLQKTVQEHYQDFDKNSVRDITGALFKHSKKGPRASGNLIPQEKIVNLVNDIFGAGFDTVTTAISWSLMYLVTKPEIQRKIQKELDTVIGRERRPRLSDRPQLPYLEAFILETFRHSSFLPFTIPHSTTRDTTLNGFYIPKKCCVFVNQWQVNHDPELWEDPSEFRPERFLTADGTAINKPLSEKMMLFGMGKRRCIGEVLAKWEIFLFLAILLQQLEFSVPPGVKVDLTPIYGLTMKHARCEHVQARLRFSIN
REPORTED_PROPERTY: IC50 (µM)
Report as a plain number; the unit µM is understood.

Request: IC50 for "CC(C)(C)c1cc(C(=O)Nc2nc(CN)cs2)n(Cc2ccccc2)n1" ?
Result: 1.5

---

Listed here: items and their measured solubility kinetic.
Assay: Kinetic solubility of the compound by nephelometry at pH 2.0
Type: physicochemical
Settings: buffer, read-out: Kinetic_solubility

CHEMICAL_STRING: NCc1csc(NC(=O)c2cnnn2Cc2ccccc2)n1
solubility kinetic: > 100 µg/mL
//
CHEMICAL_STRING: NCc1csc(NC(=O)c2cc3ccccc3n2Cc2ccccc2)n1
solubility kinetic: 25 µg/mL
//
CHEMICAL_STRING: NCc1csc(NC(=O)c2ccc(Cl)cc2)n1
solubility kinetic: > 100 µg/mL
//
CHEMICAL_STRING: NCc1csc(NC(=O)c2ccccn2)n1
solubility kinetic: > 100 µg/mL

Request: // lookup solubility kinetic for "CNCc1csc(NC(=O)c2cc(C(C)(C)C)nn2Cc2ccccc2)n1"
Result: 25 µg/mL

Request: For the compound shown here, "NCc1csc(NC(=O)c2cnn[nH]2)n1" , give the reported solubility kinetic.
Result: > 100 µg/mL

Request: I am curious: what solubility kinetic value has been reported for "CC(C)(C)c1cc(C(=O)Nc2ccncc2)n(Cc2ccccc2)n1" ?
Result: > 100 µg/mL

Request: So what's the measured solubility kinetic for this one? "NCc1csc(NC(=O)c2ccn[nH]2)n1"
Result: > 100 µg/mL

Request: Consider the compound "CC(=O)NCc1csc(NC(=O)c2cc(C(C)(C)C)nn2Cc2ccccc2)n1" and give its measured solubility kinetic.
Result: 12.5 µg/mL

Request: Record request: solubility kinetic value, item "CC(C)(C)c1cc(C(=O)Nc2nc(CO)cs2)n(Cc2ccccc2)n1"
Result: 12.5 µg/mL

Request: Look up solubility kinetic: "CC(C)(C)c1cc(C(=O)Nc2nc(CNS(C)(=O)=O)cs2)n(Cc2ccccc2)n1"
Result: 3.1 µg/mL

Request: Find the recorded solubility kinetic belonging to "NCc1csc(NC(=O)c2ncccn2)n1" and report it.
Result: > 100 µg/mL

Request: Requested field: solubility kinetic. Item: "NCc1csc(NC(=O)c2cc3ccccc3o2)n1"
Result: > 100 µg/mL

Request: Give the measured solubility kinetic of "CC(C)(C)c1cc(C(=O)Nc2ccccc2)n(Cc2ccccc2)n1" .
Result: 1.6 µg/mL

Request: # query: solubility kinetic of entry "CC(C)(C)c1cc(C(=O)Nc2cccc(CN)c2)n(Cc2ccccc2)n1"
Result: > 100 µg/mL

Request: Name the reported solubility kinetic value associated with the compound "NCc1csc(NC(=O)c2ccccc2)n1"
Result: > 100 µg/mL

Request: Which solubility kinetic value belongs to "NCc1csc(NC(=O)c2cn(Cc3ccccc3)nn2)n1" ?
Result: 50 µg/mL

Request: Returns the measured solubility kinetic for the input compound. Input: "NCc1csc(NC(=O)c2cc3ccccc3[nH]2)n1"
Result: > 100 µg/mL

Request: Any idea what solubility kinetic was measured for "NCc1csc(NC(=O)c2ccon2)n1" ?
Result: 50 µg/mL

Request: Dear colleague, I am looking for the recorded solubility kinetic of the following compound: "CC(C)(C)c1cc(C(=O)Nc2ccccn2)n(Cc2ccccc2)n1"
Result: 25 µg/mL

Request: I would be grateful if you could share the reported solubility kinetic for "NCc1csc(NC(=O)c2cccnn2)n1" .
Result: > 100 µg/mL

---

Test: Plasma protein binding in human at 200 ng/mL
Assay type: ADME, cell-free
Settings: read-out: PPB (converted)
REPORTED_PROPERTY: fraction unbound at 200 ng/mL

Request: Using the record for "CC(C)(C)c1cc(C(=O)Nc2nc(CN)cs2)n(Cc2ccccc2)n1" , report its fraction unbound at 200 ng/mL.
Result: 0.06

---

Biological target: CYP3A4/5 (Homo sapiens, UniProt P08684+P20815)
Test: Inhibition of CYP3A4/5-mediated testosterone 6beta-hydroxylation in human liver microsomes by LCMS analysis
Format: ADME, Microsome
Settings: probe testosterone (6beta-hydroxylation)
REPORTED_PROPERTY: IC50

Request: Field request: IC50 | item: "CC(C)(C)c1cc(C(=O)Nc2nc(CN)cs2)n(Cc2ccccc2)n1"
Result: > 30 µM

---

Assay: Oral bioavailability in Sprague-Dawley rat at 21.8 mg/kg
Assay type: ADME, organism-based
Settings: in vivo
REPORTED_PROPERTY: bioavailability (%)
Report as a plain number; the unit % is understood.

Request: For "CC(C)(C)c1cc(C(=O)Nc2nc(CN)cs2)n(Cc2ccccc2)n1" , what is its reported bioavailability?
Result: 50.4

---

Assay: Lipophilicity, log D of the compound by gradient HPLC at pH 3.0
Type: physicochemical
Details: buffer
REPORTED_PROPERTY: chromatographic logD
Answer with a bare number; do not write a unit.

Solved cases below.
CHEMICAL_STRING: NCc1csc(NC(=O)c2ccc(Cl)cc2)n1
chromatographic logD: 1.2

CHEMICAL_STRING: NCc1csc(NC(=O)c2cnn[nH]2)n1
chromatographic logD: -0.2

CHEMICAL_STRING: NCc1csc(NC(=O)c2cnnn2Cc2ccccc2)n1
chromatographic logD: 1.3

CHEMICAL_STRING: NCc1csc(NC(=O)c2ccon2)n1
chromatographic logD: 0

CHEMICAL_STRING: CC(C)(C)c1cc(C(=O)Nc2nc(CN)cs2)n(Cc2ccccc2)n1
chromatographic logD: 2.4

CHEMICAL_STRING: CC(C)(C)c1cc(C(=O)Nc2ccccc2)n(Cc2ccccc2)n1
chromatographic logD: 4.7

CHEMICAL_STRING: CC(C)(C)c1cc(C(=O)Nc2ccccn2)n(Cc2ccccc2)n1
chromatographic logD: 4.5

CHEMICAL_STRING: Cc1csc(NC(=O)c2cc(C(C)(C)C)nn2Cc2ccccc2)n1
chromatographic logD: 4.7

Request: May I ask what chromatographic logD has been recorded for "NCc1csc(NC(=O)c2ccn[nH]2)n1" ?
Result: 0

Request: Looking for the measured chromatographic logD of "CC(C)(C)c1cc(C(=O)Nc2cccc(CN)c2)n(Cc2ccccc2)n1" , can you help?
Result: 2.2

Request: Find the recorded chromatographic logD belonging to "NCc1csc(NC(=O)c2cc3ccccc3o2)n1" and report it.
Result: 1.1

Request: I'd like to know its chromatographic logD. The compound in question is "Cn1nc(C(C)(C)C)cc1C(=O)Nc1nc(CN)cs1"
Result: 1.2

---

Experiment: Lipophilicity, log D of the compound by gradient HPLC at pH 7.4
Type: physicochemical
Conditions: buffer
# key: entry, value: chromatographic logD
# print the numeric value only

// solved cases for chromatographic logD follow
CHEMICAL_STRING: NCc1csc(NC(=O)c2ccc(Cl)cc2)n1
chromatographic logD: 1.6
//
CHEMICAL_STRING: NCc1csc(NC(=O)c2cnnn2Cc2ccccc2)n1
chromatographic logD: 1.6

Request: chromatographic logD for "Cc1csc(NC(=O)c2cc(C(C)(C)C)nn2Cc2ccccc2)n1" ?
Result: 4.7

Request: So what does the record say about chromatographic logD for "CC(C)(C)c1cc(C(=O)Nc2ccccc2)n(Cc2ccccc2)n1" ?
Result: 4.7

Request: Given "NCc1csc(NC(=O)c2ccccc2)n1" , state its recorded chromatographic logD.
Result: 1

Request: Value lookup for chromatographic logD; key = "CC(C)(C)c1cc(C(=O)Nc2cccc(CN)c2)n(Cc2ccccc2)n1"
Result: 2.9

Request: Requested field: chromatographic logD. Item: "NCc1csc(NC(=O)c2cc3ccccc3o2)n1"
Result: 1.5

Request: For the compound "NCc1csc(NC(=O)c2ccn[nH]2)n1" , what chromatographic logD is on record?
Result: 0.1

Request: For the compound shown here, "NCc1csc(NC(=O)c2ccon2)n1" , give the reported chromatographic logD.
Result: -0.1

Request: Name the reported chromatographic logD value associated with the compound "CC(C)(C)c1cc(C(=O)Nc2cccnc2)n(Cc2ccccc2)n1"
Result: 3.8

Request: State the recorded chromatographic logD for this entry: "CC(C)(C)c1cc(C(=O)Nc2nc(CO)cs2)n(Cc2ccccc2)n1"
Result: 3.4

Request: Query: chromatographic logD; subject: "NCc1csc(NC(=O)c2cnn[nH]2)n1"
Result: -0.3

---

Reported chromatographic logD values for the following compounds.
Assay: Lipophilicity, log D of the compound by gradient HPLC at pH 7.4
Format: physicochemical
Conditions: buffer
Answer with a number only.

# annotated cases, reported chromatographic logD shown
CHEMICAL_STRING: CNCc1csc(NC(=O)c2cc(C(C)(C)C)nn2Cc2ccccc2)n1
VALUE_REPORTED: 3.8
//
CHEMICAL_STRING: Cn1nc(C(C)(C)C)cc1C(=O)Nc1nc(CN)cs1
VALUE_REPORTED: 1.6

Request: Looking for the measured chromatographic logD of "CC(C)(C)c1cc(C(=O)Nc2nc(CNS(C)(=O)=O)cs2)n(Cc2ccccc2)n1" , can you help?
Result: 3.7
